Hey, just so you know, these numbers are from PubChem BioAssay.

# protocol.details: SK-BR-3 cell growth inhibitors, pilot screen, 24 h, human (AID 572);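 further: compound exposure lasted between 18 and 24 h rather than exactly 24 h; 100% = carrier-treated control wells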
# condition.notes: SK-BR-3 viability, CellTiter-Glo luminescence, at 10 µM, stronger effect = lower value
recorded.endpoint: viability (%)
Express your answer in %, writing the number without its unit.

Here is how some compounds turned out for viability.
>>> numeric_readout("CN(C)S(=O)(=O)N1CCN(C(=O)N(c2ccccc2)c2ccccc2)CC1")
81.5
>>> numeric_readout("Cc1ccc(N2C(=O)c3ccccc3C2O)nc1 (stereo not given)")
122
>>> numeric_readout("CSCCC(NS(=O)(=O)c1ccc2c(c1)oc(=O)n2C)C(=O)NC1CCCCC1 (stereo not given)")
91
>>> numeric_readout("Cc1ccc(NC(=O)CS(=O)CC(=O)NCC2CCCO2)cc1 (stereo not given)")
96.5
>>> numeric_readout("O=C(CN1C(=O)CSC1=O)Nc1ccc(N2CCOCC2)cc1")
96.5

Please look at the following compound next.
### Prompt What measured viability goes with `Brc1ccc(-c2csc(/N=C/N3CCOCC3)n2)cc1` ?
### Response 113
